- experimental.system: Cyclic GMP-AMP synthase (Mus musculus) (UniProt Q8C6L5)
- Sequence (Q8C6L5 whole entry, looked up): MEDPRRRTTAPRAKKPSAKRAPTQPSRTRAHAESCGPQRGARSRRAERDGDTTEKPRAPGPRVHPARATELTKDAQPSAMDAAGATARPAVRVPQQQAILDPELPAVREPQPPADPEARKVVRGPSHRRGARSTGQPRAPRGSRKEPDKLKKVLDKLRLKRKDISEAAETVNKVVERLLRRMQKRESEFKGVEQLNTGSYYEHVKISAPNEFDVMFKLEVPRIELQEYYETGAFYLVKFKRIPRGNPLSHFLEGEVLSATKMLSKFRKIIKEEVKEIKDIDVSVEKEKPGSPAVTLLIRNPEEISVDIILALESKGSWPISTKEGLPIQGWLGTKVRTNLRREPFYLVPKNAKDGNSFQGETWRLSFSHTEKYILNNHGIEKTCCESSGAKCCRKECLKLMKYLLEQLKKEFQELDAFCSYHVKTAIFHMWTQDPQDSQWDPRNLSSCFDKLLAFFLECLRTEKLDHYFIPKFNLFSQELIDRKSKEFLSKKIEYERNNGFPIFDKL
- method: inhibitors of Mus musculus cyclic GMP-AMP synthase, initial high-throughput assay, cell-free, RapidFire MS (AID 1259397);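 note: enzyme stimulated by 45 bp dsDNA with ATP and GTP substrates; cGAMP share of summed cGAMP plus half ATP and half GTP signals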
- cond: recombinant mouse cGAS, cGAMP by RapidFire MS; at 12.5 µM; active compounds read high
The campaign covered roughly 130,000 compounds. About 230 (0.18%) were called active. The sample holds actives, similar compounds and a random draw of the others, so the mix is not that of the screen.
Items are presented alongside their recorded inhibition.
Give the value, in units of %, as a plain number.

[
  {
    "molecule": "COc1cccc(N(CN2C(=O)c3ccccc3C2=O)C(C)=O)c1",
    "inhibition (%)": 22.9
  },
  {
    "molecule": "CCc1ccc(NC(=O)C(C)n2cc(C(F)(F)F)ccc2=O)cc1 (stereo not given)",
    "inhibition (%)": -4.23
  },
  {
    "molecule": "COc1ccc(NC2CCCN(c3nc(C(F)(F)F)nc(C)c3C)C2)cc1 (stereo not given)",
    "inhibition (%)": -21.1
  },
  {
    "molecule": "O=C(CCn1cnc2ccccc2c1=O)Nc1cc2c(cc1Br)OCCO2",
    "inhibition (%)": -1.61
  },
  {
    "molecule": "COc1ccc2c(c1)CCc1cc(C(=O)NC(C)c3c(C)nn(C)c3C)sc1-2 (stereo not given)",
    "inhibition (%)": 0.0306
  }
]

Consider the molecule shown here: Cn1c(=O)c2c(nc(CN3CCCCC3)n2Cc2cccc3ccccc23)n(C)c1=O What is its recorded inhibition? -3.06

Which inhibition reading was recorded for the molecule CC(C)(C)SCCNC(=O)CN(c1ccc(Cl)cc1Cl)S(=O)(=O)c1ccccc1 ? -1.39

Item CN(C)CCNc1cc(-c2n[nH]c(C(F)(F)F)n2)c2cc[nH]c2n1 has what recorded inhibition? -6.32

Value lookup for inhibition; key = COc1ccccc1CCc1nnc(CCC(=O)NC(C)CCn2cccn2)o1 (stereo not given) 2.62

Reported inhibition, molecule CC(C)(C)CN(CCO)Cc1ncc(C(C)(C)C)o1 : ____ -4.58
